Where do the numbers come from? From the supplement of paper PMC10567573.

Would you kindly list protein stability index for each of these variants?
B1: SNX8 (parent)
chain: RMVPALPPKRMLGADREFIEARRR

- Variants of: B1
- protocol-notes: protein stability index of a GFP-peptide fusion (GPS, HEK-293T) (PSI 1-6); higher = more stable;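 further: lentivirally expressed fusions sorted by FACS into six bins by GFP to DsRed ratio, PSI derived from sequencing read proportions per bin multiplied by bin number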
- condition-set: c terminus: a fixed tail appended

Would you kindly share the measured protein stability index for RMVPALPPKRMLGADREFIEAARR [R22A] ? 4.33

Next record, please: RMVPSLPPKRMLGADREFIEARRR [A5S] 4.05

Next record, please: RMVPALPPKRMWGADREFIEARRR [L12W] 4.05

Next record, please: RMVPAMPPKRMLGADREFIEARRR [L6M] 3.73

Next record, please: RMVPALPPKFMLGADREFIEARRR [R10F] 3.39

Next record, please: RMVCALPPKRMLGADREFIEARRR [P4C] 3.62

Next record, please: RMVPALPPKRMLGADVEFIEARRR [R16V] 3.62

Next record, please: RMVYALPPKRMLGADREFIEARRR [P4Y] 3.31

Next record, please: RMVPALPPKRMLGADREFLEARRR [I19L] 3.06

Next record, please: RMVPALPCKRMLGADREFIEARRR [P8C] 2.77

Next record, please: RMVPMLPPKRMLGADREFIEARRR [A5M] 3.49

Next record, please: RMVPALPPKRMLGADREFIAARRR [E20A] 3.51

Next record, please: RMVPALPPKRMLGADRNFIEARRR [E17N] 4

Next record, please: RMVPALPPKRMGGADREFIEARRR [L12G] 4.66

Next record, please: RMVPALPPKDMLGADREFIEARRR [R10D] 4.61

Next record, please: RMVPALPPKRMLGADREMIEARRR [F18M] 3.78

Next record, please: RMVPALPPKAMLGADREFIEARRR [R10A] 4.23

Next record, please: RMVPALPPKRCLGADREFIEARRR [M11C] 3.46

Next record, please: RMVPALPPKRMLGADREFREARRR [I19R] 4.16

Next record, please: RMVPALPPKRMLKADREFIEARRR [G13K] 3.72

Next record, please: RMVPAEPPKRMLGADREFIEARRR [L6E] 4.52

Next record, please: SMVPALPPKRMLGADREFIEARRR [R1S] 3.8

Next record, please: RMVEALPPKRMLGADREFIEARRR [P4E] 3.67

Next record, please: RMVPALPPKRMLNADREFIEARRR [G13N] 3.29

Next record, please: RMVPALPPKRMLLADREFIEARRR [G13L] 2.69

Next record, please: RMNPALPPKRMLGADREFIEARRR [V3N] 4.08

Next record, please: RMVPALPPKRMLGAYREFIEARRR [D15Y] 2.64

Next record, please: RMVPASPPKRMLGADREFIEARRR [L6S] 4.84

Next record, please: RMVPALPPKRMLGADREFIPARRR [E20P] 4.24

Next record, please: RMVPALPPKRMLGADREFIEARRD [R24D] 4

Next record, please: RMVPALPPKRMLGADREFIEHRRR [A21H] 4.32

Next record, please: RMVPILPPKRMLGADREFIEARRR [A5I] 3.2

Next record, please: RMVPALPPKRMLGADREFIHARRR [E20H] 3.98

Next record, please: RMVPALPPKRMLGADREFISARRR [E20S] 4

Next record, please: RMVPALPPKRMVGADREFIEARRR [L12V] 4.42

Next record, please: RMVPALPPKRMLGADHEFIEARRR [R16H] 3.67

Next record, please: LMVPALPPKRMLGADREFIEARRR [R1L] 1.96

Next record, please: RMVPALPPKRMLGADRELIEARRR [F18L] 3.84

Next record, please: RMVPALPPKRMLGADREFIEARRN [R24N] 3.66

Next record, please: RMVPALPPKRMLVADREFIEARRR [G13V] 2.54

Next record, please: RMVPPLPPKRMLGADREFIEARRR [A5P] 3.59

Next record, please: RMVPAYPPKRMLGADREFIEARRR [L6Y] 3.39

Next record, please: RMVPALPPKRMLGADREFIEARMR [R23M] 2.4

Next record, please: RMVPALPFKRMLGADREFIEARRR [P8F] 3.18

Next record, please: RMVPALPPKRMLWADREFIEARRR [G13W] 2.17

Next record, please: RMVPALSPKRMLGADREFIEARRR [P7S] 4.08
